# credit: patent US5691335A

Items are presented alongside their recorded IC50.
Molecular target: cathepsin G (Homo sapiens, UniProt P08311)
Construct: cathepsin G (product of Calbiochem Co.) derived from human neutrophil; purchased Calbiochem Co; host or cells: human neutrophil
Sequence (P08311 21-244 limits assumed): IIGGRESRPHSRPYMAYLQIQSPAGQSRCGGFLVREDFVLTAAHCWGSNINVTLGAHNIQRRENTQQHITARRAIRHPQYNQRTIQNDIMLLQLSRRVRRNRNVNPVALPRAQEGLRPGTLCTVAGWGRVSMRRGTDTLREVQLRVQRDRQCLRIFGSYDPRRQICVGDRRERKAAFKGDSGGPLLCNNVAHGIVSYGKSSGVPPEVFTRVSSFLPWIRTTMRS
Assay: Inhibitory activity against cathepsin G (Ang I to Ang II conversion, HPLC)
Format: biochemical
Details: human neutrophil cathepsin G, 37° C., pH 7.5, Ang I substrate; read-out: Inhibitory activities against enzymes (IC50), Cathepsin
The response must be a number in µM with no trailing unit.

A selection of reference data follows.
molecule="O=C(O)COc1ccc(S(=O)(=O)N2C(=O)CN(c3ccccc3)C2=O)cc1 [Compound 40]" test_target="cathepsin G (Homo sapiens, UniProt P08311)" value_kind=IC50 quantity_unit=µM reading=7
molecule="O=C1CN(c2ccccc2)C(=O)N1S(=O)(=O)c1cccc(Oc2ccccc2)c1 [Compound 25]" test_target="cathepsin G (Homo sapiens, UniProt P08311)" value_kind=IC50 quantity_unit=µM reading=3.3
molecule="COc1cccc(S(=O)(=O)N2C(=O)CN(c3ccccc3)C2=O)c1 [Compound 20]" test_target="cathepsin G (Homo sapiens, UniProt P08311)" value_kind=IC50 quantity_unit=µM reading=8
molecule="O=C1CN(c2ccc(Cl)cc2)C(=O)N1S(=O)(=O)c1ccc(Cl)cc1 [Compound 1]" test_target="cathepsin G (Homo sapiens, UniProt P08311)" value_kind=IC50 quantity_unit=µM reading=1.5

Let me check: Cc1ccc(N2CC(=O)N(S(=O)(=O)c3ccc(C)c(C)c3)C2=O)cc1C [Compound 60] , system cathepsin G (Homo sapiens, UniProt P08311), measured IC50 is 1.7

----------
Molecular target: Human cardiac chymase (Homo sapiens)
Construct: Human cardiac chymase was purified according to the process of Urata et al; from tissue; host or cells: human heart (cardiac)
Sequence (P23946 22-247): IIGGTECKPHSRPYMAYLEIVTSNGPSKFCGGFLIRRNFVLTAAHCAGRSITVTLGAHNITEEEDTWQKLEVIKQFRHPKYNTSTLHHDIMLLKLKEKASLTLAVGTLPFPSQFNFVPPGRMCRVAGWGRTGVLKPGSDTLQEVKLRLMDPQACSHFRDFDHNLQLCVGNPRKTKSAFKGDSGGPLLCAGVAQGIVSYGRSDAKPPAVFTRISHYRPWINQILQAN
Test: Inhibitory activity against chymase (Ang I to Ang II conversion, HPLC)
Format: biochemical
Value kind: IC50 (nM)
The response must be a number in nM with no trailing unit.

Let me check: `CN1CCN(C(=O)Cc2ccc(S(=O)(=O)N3C(=O)CN(c4ccccc4)C3=O)cc2)CC1` , system Human cardiac chymase (Homo sapiens), measured IC50 is 850

----------
Target: bovine pancreas α-chymotrypsin (Bos taurus, UniProt P00766)
Construct: bovine pancreas α-chymotrypsin (product of Sigma Chemical Co., TypeII); purchased Sigma Chemical Co. TypeII; host or cells: bovine pancreas
Assay: Inhibitory activity against chymotrypsin (Ang I conversion, HPLC)
Assay type: biochemical
Conditions: bovine pancreas, 37° C., pH 7.5, Ang I substrate; read-out: Inhibitory activities against enzymes (IC50), Chymotrypsin
Value kind: pIC50
Conceptually, pIC50 converts a concentration in mol/L into minus its log10.

A selection of reference data follows.
smiles_input=C=CCOC(=O)c1ccc(S(=O)(=O)N2C(=O)CN(c3ccc(C)c(C)c3)C2=O)cc1 value_kind=pIC50 reading=5.07
smiles_input=O=C1CN(c2ccccc2)C(=O)N1S(=O)(=O)c1cccc2ccccc12 value_kind=pIC50 reading=5.80

Recorded pIC50 (compound `O=C1CN(c2ccc(Cl)c(Cl)c2)C(=O)N1S(=O)(=O)c1ccc2ccccc2c1` ): 5.62
